Origin of measurements: the supplement of paper PMC12042874

Assay procedure: amyloid nucleation score (Sup35N fusion, yeast selection) (log enrichment); library NNK1; higher = more nucleation; inactive = no reads after selection;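 further: zero at mode of non-aggregating sequences after 7 days selection at 30°C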
Reported endpoint: amyloid nucleation score

QSSLGNLTCANFWVTTTEVG :: inactive
YSVLTFADLYMVSMS :: inactive
YIYYSNFCPDRLIVFINAMT :: inactive

====

Task for the reader: assign each of the following sequences its reported amyloid nucleation score.
Assay procedure: amyloid nucleation score (Sup35N fusion, yeast selection) (log enrichment); library NNK2; higher = more nucleation; inactive = no reads after selection
Simply state the number, no unit and no words.

amyloid nucleation score lookup needed for LVTRTVWGLK , thanks.
0.223

Queued: LTLLYIWSKDAVRYLLGNMD
-1.09

Queued: KPGMRNNYFLAFGFYCTCTR
1.59

Queued: YKSYSNPVLHHYSSLIPGPN
-0.001

Queued: KCEYGLSVKYCVGQTGGN
1.17

Queued: VFAGFACFHIIN
5.84

Queued: TVLWSRLDPPPRERKL
1.13

Queued: AHNDVNGVFLMPVRSLDFKH
-1.17

Queued: MFCSEMLVYGLMMVLSF
-0.05

Queued: FAVNDCILCCRRSHWVLPYW
-0.334

Queued: GGREARMGRKKGERVYRVRF
0.657

====

Assay procedure: amyloid nucleation score (Sup35N fusion, yeast selection) (log enrichment); library NNK2; higher = more nucleation; inactive = no reads after selection
Output: class label from amyloid nucleation score. Mapping: bin 0: < 0.05; bin 1: ≥ 0.05 and < 1; bin 2: ≥ 1

Hey, which category is IVWSNMTIQQSTSSVY in, do you know?
bin 0

Queued: SVFCCLYLYSG
bin 2

Queued: IRAKFI
bin 1

Queued: QVMMIWCIWDY
bin 2

Queued: IMSNGDRNAYYVKLHES
bin 1

Queued: FSGRKPSIVLHHSSECQP
bin 2

Queued: PTVSLKDISGWIKPVRYLNG
bin 1

Queued: SFGWAYSVICLFIALTRTFL
bin 0

Queued: RRNTLRYARMKSRYSFAP
bin 0

Queued: SLVTLWLGANAR
bin 1

Queued: ISSNKGFVEVAVSWVPRDVR
bin 1

Queued: DYILLARYSRNVHCS
bin 0

Queued: RLMRAKCMQWVSFQ
bin 0

Queued: YGALYTVRMEN
bin 0

Queued: ALVVLFTCGCSGMLVYNAWS
bin 1

Queued: EVSHAIYRWTLEKYCWNCHV
bin 1

Queued: YSWVGLCPLIGRLYTGFAN
bin 0

Queued: KMDFAFEA
bin 0

Queued: LFFALSMCSIF
bin 2

Queued: VYISSSFDFWMFVNFIDDTL
bin 0

Queued: GMGQTRKCHAGGNWHVYSCR
bin 1

Queued: SINTAVSCFMAGICNGHRSE
bin 2

Queued: KTPGSHVGLWSMPGRSYPSA
bin 1

Queued: TMYWTAMMISGDLACQIGSR
bin 2

Queued: APRGASALGCVYSDCSVVSI
bin 1

Queued: VAVLKGVGDSPNLAGDSKWD
bin 1

Queued: NVLRMMC
bin 0

Queued: GLGYSLICNLTSICGKNNV
bin 0

Queued: AWRVRTLQGFYGSDAWQSHD
bin 0

Queued: LLAVFTSCYCQECYVEPALV
bin 2

Queued: VLMASSLITVSICVPRTWAY
bin 2

Queued: ENGTLTIYMVAL
bin 2

Queued: ALGVPLYMIEGIGKCLLSLK
bin 2

Queued: YTYSYATLNMWFQLT
bin 2

Queued: ELLGSLCRNRVGTWTICNMS
bin 1

====

Assay procedure: amyloid nucleation score (Sup35N fusion, yeast selection) (log enrichment); library NNK2; higher = more nucleation; inactive = no reads after selection
Reported endpoint: amyloid nucleation score

Here is how some substances turned out for amyloid nucleation score.
YSLYEYFKSHLRKACVMPGW :: inactive
DWWLLYNCRSRMMGIKADPL :: inactive
SKRFIVIATLNTYMFQKLEF :: inactive
TIYRSSSNNSQEHSLNLMFG :: inactive
MCQDGCHGFLVTADQPQSGA :: -0.148

amyloid nucleation score lookup needed for KWVVKMDVGCVPSQTRRGSW , thanks.
1.05

Queued: HCRSIVWSRYFLMNPLN
-0.029

====

Assay procedure: amyloid nucleation score (Sup35N fusion, yeast selection) (log enrichment); library NNK3; higher = more nucleation; inactive = no reads after selection
Reported endpoint: amyloid nucleation score

KYCGVTNLA :: inactive
TTSLMSKVFY :: inactive
LNLQPRVDVVLVLFRTRANK :: 0.767
RSTTTMEYWFSCAVYSPKSV :: 0.682
SITYCWLHR :: 1.77
VYTGHVGLFV :: inactive
SDNELMIAFESG :: inactive

Query sequence follows.
amyloid nucleation score lookup needed for MRLVICTAHWQSFYRFYIIL , thanks.
inactive

====

Assay procedure: amyloid nucleation score (Sup35N fusion, yeast selection) (log enrichment); library NNK3; higher = more nucleation; inactive = no reads after selection
Reported endpoint: amyloid nucleation score

Here is how some substances turned out for amyloid nucleation score.
CQISWL :: inactive
TVRGEVVGPSDNREKIQKQW :: inactive
LMYLTCPPRGDSTFPKVIRQ :: inactive
YRRLCGDCGFGTLRLDLLFV :: inactive
VINKRRWTSNGNCILEVRHG :: inactive

amyloid nucleation score lookup needed for YISFVFDRYNKSYGTARICK , thanks.
-0.506

Queued: RGKFHRVA
inactive

Queued: LPYTVQAVVIRVDKSYVSSV
inactive

====

Assay procedure: amyloid nucleation score (Sup35N fusion, yeast selection) (log enrichment); library NNK2; higher = more nucleation; inactive = no reads after selection
Reported endpoint: amyloid nucleation score
Simply state the number, no unit and no words.

amyloid nucleation score lookup needed for MLHSRLAREMHTLVILFFNK , thanks.
0.05

Queued: AVLFRRVAFRHNWPW
0.995

Queued: DCISRY
1

====

Assay procedure: amyloid nucleation score (Sup35N fusion, yeast selection) (log enrichment); library NNK2; higher = more nucleation; inactive = no reads after selection
Where amyloid nucleation score equals or exceeds 0.07, the correct label is T; where it does not, the label is F.

Textbook exercise: given the entry RFYIALMDFRSMIFGS , state whether its amyloid nucleation score is greater than or equal to 0.07.
T

Queued: PSLTVPGVSRYCFS
F

Queued: SCWMMFHPNPMQLKFSYCVE
F

Queued: CMESRCFEL
T

Queued: NNSPVSPDGCLLGSSVQYWY
F

Queued: AFCTVSSCFMSSSLPI
T

Queued: YDYEEFRSVLKWIAGRIYVD
F

Queued: FWVRNVDTLWLSPRYVTWSG
F

Queued: AWRKRH
T

Queued: PRLNISLVMCNMFVGRGRFH
T

Queued: YCNFDRIVYWPLGAAALPFR
F

Queued: RRVDWDYLPLFMQAAPYSWK
F

Queued: PHLEGVSCVVVKHQLRS
T

Queued: HKCTSAV
T

====

Assay procedure: amyloid nucleation score (Sup35N fusion, yeast selection) (log enrichment); library NNK3; higher = more nucleation; inactive = no reads after selection
Reported endpoint: amyloid nucleation score

Here is how some substances turned out for amyloid nucleation score.
ISDTSCHIDTLRFLGRVRFL :: inactive
VYIVSDTRMATASFG :: -0.773
FIVDVYICAVSLLVGFLDAE :: inactive
AYMKGVWFRDEKDISFLIWI :: inactive
RIVGRLVSRALWWV :: inactive
RFSFVTRFRYREQLPLVR :: 0.068
LSCYRVFSYCT :: inactive
VARIIYQRIW :: inactive

amyloid nucleation score lookup needed for SSDCMDDRCCDNCDSSRLLW , thanks.
inactive

Queued: SRVRNDWYRVKVMGANVVGY
inactive

====

Assay procedure: amyloid nucleation score (Sup35N fusion, yeast selection) (log enrichment); library NNK3; higher = more nucleation; inactive = no reads after selection
Reported endpoint: amyloid nucleation score

GFTLHHLTACVIGTCVFFSP :: 1.93
LVTIYW :: inactive
CDVSGSCPGRSPARLKEGSR :: inactive
NPWPAWPGTSCIRDLQTSIR :: inactive
